# PROTOCOL_DESCRIPTION: Phase 1 crossover PK study: oral solution fed/fasted vs IV infusion in healthy subjects
# Assay type: in vivo, human
# DETAILS: human, plasma, po, 3.3 mg/kg, oral 3.3 mg/kg fasted state, human plasma; read-out: AUClast Median

{"columns": ["MOLECULE", "RESULT_UNIT", "AUC(0-t)"],
 "data": [
  ["Cn1cc(C2=C(c3coc4ccc(F)cc34)C(=O)NC2=O)c2cc3c(cc21)OCO3 [elraglusib]", "ng·h/mL", 1560]
]}

----------
# PROTOCOL_DESCRIPTION: Phase 1 crossover PK study: oral solution fed/fasted vs IV infusion in healthy subjects
# Assay type: in vivo, human
# DETAILS: human, plasma, po, 3.3 mg/kg, oral 3.3 mg/kg fed state, human plasma; read-out: AUC∞ Arithmetic Mean

{"columns": ["TEST_SMILES", "AUC(0-inf) [ng·h/mL]"],
 "data": [
  ["Cn1cc(C2=C(c3coc4ccc(F)cc34)C(=O)NC2=O)c2cc3c(cc21)OCO3", 5000]
]}

----------
# PROTOCOL_DESCRIPTION: Phase 1 crossover PK study: oral solution fed/fasted vs IV infusion in healthy subjects
# Format: in vivo, human
# DETAILS: human, plasma, po, 3.3 mg/kg, oral 3.3 mg/kg fasted state, human plasma; read-out: AUC48 Arithmetic Mean

{"columns": ["TEST_SMILES", "AUC"],
 "data": [
  ["Cn1cc(C2=C(c3coc4ccc(F)cc34)C(=O)NC2=O)c2cc3c(cc21)OCO3", "1620 ng·h/mL"]
]}

----------
# PROTOCOL_DESCRIPTION: in vivo
# Parameters: species or system Beagle dogs
# DETAILS: male, Beagle, dog, po, 20 mg/kg

{"columns": ["TEST_SMILES", "AUC"],
 "data": [
  ["Cn1cc(C2=C(c3coc4ccc(F)cc34)C(=O)NC2=O)c2cc3c(cc21)OCO3", "21300 ng·h/mL"]
]}

----------
# PROTOCOL_DESCRIPTION: Phase 1 crossover PK study: oral solution fed/fasted vs IV infusion in healthy subjects
# Type: in vivo, human
# DETAILS: human, plasma, po, 3.3 mg/kg, oral 3.3 mg/kg fed state, human plasma; read-out: Tmax Median

{"columns": ["COMPOUND", "Tmax / h"],
 "data": [
  ["Cn1cc(C2=C(c3coc4ccc(F)cc34)C(=O)NC2=O)c2cc3c(cc21)OCO3 [elraglusib]", 5]
]}

----------
# PROTOCOL_DESCRIPTION: in vivo
# Set-up: species or system Beagle dogs
# DETAILS: male, Beagle, dog, iv, 20 mg/kg, Tmax
# Method: The objective of this study was to evaluate the pharmacokinetic profile of elraglusib following single oral and intravenous doses in Beagle dogs. […] Plasma concentrations of elraglusib were determined for dogs treated with 20 mg/kg elraglusib via oral administration on Day 1 and then again via intravenous infusion on Day 8. […]

{"columns": ["TEST_SMILES", "Tmax"],
 "data": [
  ["Cn1cc(C2=C(c3coc4ccc(F)cc34)C(=O)NC2=O)c2cc3c(cc21)OCO3", "4.98 min"]
]}

----------
# PROTOCOL_DESCRIPTION: Phase 1 crossover PK study: oral solution fed/fasted vs IV infusion in healthy subjects
# Format: in vivo, human
# DETAILS: human, plasma, po, 3.3 mg/kg, oral 3.3 mg/kg fed state, human plasma; read-out: AUC∞ Median

{"columns": ["COMPOUND", "RESULT_UNIT", "AUC(0-inf)"],
 "data": [
  ["Cn1cc(C2=C(c3coc4ccc(F)cc34)C(=O)NC2=O)c2cc3c(cc21)OCO3 [elraglusib]", "ng·h/mL", 5020]
]}

----------
# PROTOCOL_DESCRIPTION: Phase 1 crossover PK study: oral solution fed/fasted vs IV infusion in healthy subjects
# Format: in vivo, human
# DETAILS: human, plasma, po, 3.3 mg/kg, oral 3.3 mg/kg fasted state, human plasma; read-out: AUC48 Median
QUANTITY: AUC

{"columns": ["TEST_SMILES", "QUANTITY", "VALUE_REPORTED"],
 "data": [
  ["Cn1cc(C2=C(c3coc4ccc(F)cc34)C(=O)NC2=O)c2cc3c(cc21)OCO3", "AUC", "1420 ng·h/mL"]
]}

----------
# PROTOCOL_DESCRIPTION: Quantitative solubility by HPLC in organic solvents and surfactants
# Format: physicochemical
# DETAILS: organic solvent or mixture, thermodynamic from solid; DCM:MeOH (8:2), no surfactant; read-out: Solubility (n = 2) by HPLC
QUANTITY: solubility

{"columns": ["TEST_SMILES", "QUANTITY", "VALUE_REPORTED"],
 "data": [
  ["Cn1cc(C2=C(c3coc4ccc(F)cc34)C(=O)NC2=O)c2cc3c(cc21)OCO3", "solubility", "11.8 mg/mL"]
]}

----------
# PROTOCOL_DESCRIPTION: Phase 1 crossover PK study: oral solution fed/fasted vs IV infusion in healthy subjects
# Assay type: in vivo, human
# DETAILS: human, plasma, po, 3.3 mg/kg, oral 3.3 mg/kg fed state, human plasma; read-out: t1/2 GMean (converted)
# Method: This pharmacokinetic (PK) study in healthy subjects was conducted to characterize and compare the PK parameters in plasma following a single intravenous (IV) dose of Elraglusib Injection, Elraglusib Oral Solution after fasting, and Elraglusib Oral Solution after a high-fat meal (fed). […] PK parameters including AUC, Cmax, Tmax, and t1/2 were analyzed by standard non-compartmental analysis (NCA) methods following each of the elraglusib doses. […]
QUANTITY: half-life

{"columns": ["MOLECULE", "QUANTITY", "VALUE_REPORTED"],
 "data": [
  ["Cn1cc(C2=C(c3coc4ccc(F)cc34)C(=O)NC2=O)c2cc3c(cc21)OCO3 [elraglusib]", "half-life", "19 h"]
]}

----------
# PROTOCOL_DESCRIPTION: Phase 1 crossover PK study: oral solution fed/fasted vs IV infusion in healthy subjects
# Assay type: in vivo, human
# DETAILS: human, plasma, po, 3.3 mg/kg, oral 3.3 mg/kg fasted state, human plasma; read-out: Tmax GMean
QUANTITY: Tmax

{"columns": ["TEST_SMILES", "QUANTITY", "VALUE_REPORTED"],
 "data": [
  ["Cn1cc(C2=C(c3coc4ccc(F)cc34)C(=O)NC2=O)c2cc3c(cc21)OCO3", "Tmax", "2.42 h"]
]}

----------
# PROTOCOL_DESCRIPTION: Phase 1 crossover PK study: oral solution fed/fasted vs IV infusion in healthy subjects
# Format: in vivo, human
# DETAILS: human, plasma, iv, 3.3 mg/kg, IV infusion 3.3 mg/kg, human plasma; read-out: Tmax Median

{"columns": ["TEST_SMILES", "Tmax / h"],
 "data": [
  ["Cn1cc(C2=C(c3coc4ccc(F)cc34)C(=O)NC2=O)c2cc3c(cc21)OCO3", 1.32]
]}

----------
# PROTOCOL_DESCRIPTION: Phase 1 crossover PK study: oral solution fed/fasted vs IV infusion in healthy subjects
# Format: in vivo, human
# DETAILS: human, plasma, po, 3.3 mg/kg, oral 3.3 mg/kg fed state, human plasma; read-out: Cmax Median
QUANTITY: Cmax (ng/mL)

{"columns": ["TEST_SMILES", "VALUE_REPORTED"],
 "data": [
  ["Cn1cc(C2=C(c3coc4ccc(F)cc34)C(=O)NC2=O)c2cc3c(cc21)OCO3", 507]
]}

----------
# PROTOCOL_DESCRIPTION: Phase 1 crossover PK study: oral solution fed/fasted vs IV infusion in healthy subjects
# Assay type: in vivo, human
# DETAILS: human, plasma, po, human, fasting, dose increasing from 180 mg to 320 mg; read-out: oral bioavailability, FAUC∞ based regression
QUANTITY: bioavailability

{"columns": ["TEST_SMILES", "VALUE_REPORTED"],
 "data": [
  ["Cn1cc(C2=C(c3coc4ccc(F)cc34)C(=O)NC2=O)c2cc3c(cc21)OCO3", "14 to 24%"]
]}

----------
# PROTOCOL_DESCRIPTION: Phase 1 crossover PK study: oral solution fed/fasted vs IV infusion in healthy subjects
# Type: in vivo, human
# DETAILS: human, plasma, po, 3.3 mg/kg, human, 3.3 mg/kg, fed state (Cmax and AUC based); read-out: oral bioavailability

{"columns": ["COMPOUND", "bioavailability"],
 "data": [
  ["Cn1cc(C2=C(c3coc4ccc(F)cc34)C(=O)NC2=O)c2cc3c(cc21)OCO3 [elraglusib]", "19 to 63%"]
]}

----------
# PROTOCOL_DESCRIPTION: Phase 1 crossover PK study: oral solution fed/fasted vs IV infusion in healthy subjects
# Format: in vivo, human
# DETAILS: human, plasma, po, 3.3 mg/kg, human, 3.3 mg/kg oral, fed state; read-out: mean AUC∞
QUANTITY: AUC(0-inf) (ng·h/mL)

{"columns": ["TEST_SMILES", "VALUE_REPORTED"],
 "data": [
  ["Cn1cc(C2=C(c3coc4ccc(F)cc34)C(=O)NC2=O)c2cc3c(cc21)OCO3", 5000]
]}

# credit: patent US20250325517A1
